# System: BMPR2;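 note: KINOMEscan scanMAX binding as percent activity remaining versus control; lower means stronger binding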
# experimental_parameters: Compound Concentration (nM):1000
experimental_endpoint: Percent Control (%)
# unit: % | format: bare number

Exercise: Retrieve Percent Control measured for Cl.c1ccc(Cc2nc3ccc(Nc4ncnc5ccccc45)cc3[nH]2)cc1 [GR269666A] and print it.
Key: 100

Exercise: Retrieve Percent Control measured for CCS(=O)(=O)c1ccc(OC)c(Nc2ncc(-c3cccc(OC)c3)o2)c1 [GW580509X] and print it.
Key: 100

Exercise: Retrieve Percent Control measured for CC1=C(C(=O)Nc2ccc3[nH]ncc3c2)C(c2ccc(Cl)c(Cl)c2)CC(=O)N1 (stereo not drawn) [GSK299115A] and print it.
Key: 69

Exercise: Retrieve Percent Control measured for Cl.O=C(Nc1ccc(Oc2ccc3[nH]c(NC(=O)c4ccco4)nc3c2)cc1)Nc1cc(C(F)(F)F)ccc1F [GW683134A] and print it.
Key: 98

Exercise: Retrieve Percent Control measured for COc1cc(C=NNc2ncnc3c2cnn3-c2ccccc2)ccc1O [GW513184X] and print it.
Key: 100

Exercise: Retrieve Percent Control measured for Nc1ncnc2occ(-c3ccc(NC(=O)Nc4cc(C(F)(F)F)ccc4F)cc3)c12 [GW770249X] and print it.
Key: 97
